Where do these numbers come from? They come from patent EP2138545B1.

experiment: Measurement of solubility in chloroform and in dichloromethane (solvent added by 0.1 mL until the whole amount dissolved); assay type: physicochemical; details: organic solvent or mixture, thermodynamic from solid; solvent chloroform; read-out: solubility in chloroform
propertyMeasured: solubility

Exam item: Bench note: what solubility did c1cc2c(s1)-c1nc-2nc2[nH]c(nc3nc(nc4[nH]c(n1)c1ccsc41)-c1ccsc1-3)c1ccsc21 [unsubstituted phthalocyanine derivative, reference compound] show?
Marked response: < 20 µg/mL
